For each entry below, report its inhibition at 1 ppm value.
system: pathogenic bacteria causing black rot in Chinese cabbages; assay: In vitro bactericidal activity, black rot in Chinese cabbages; assay type: cell-based, xanthomonas; settings: Xanthomonas, dosage 1 ppm, read-out: inhibitory rate

# inhibition at 1 ppm of COCCOC(=O)c1cn(C2CC2)c2cc(OC3CC3)c(F)cc2c1=O [Compound 294] = ≥ 90%

Documented inhibition at 1 ppm of COCCCOC(=O)c1cn(C2CC2)c2cc(Cl)c(F)cc2c1=O [Compound 165] : ≥ 90%

Sure, the documented inhibition at 1 ppm for CCOc1ccc2c(=O)c(C(=O)OCCOC)cn(C3CC3)c2c1 [Compound 342] is ≥ 90%

The compound CCOc1cc2c(cc1F)c(=O)c(C(=O)OCCO)cn2C1CC1 [Compound 265] showed inhibition at 1 ppm equal to ≥ 90%

Sample CCOCCOC(=O)c1cn(C2CC2)c2cc(Cl)c(F)cc2c1=O [Compound 153] ; inhibition at 1 ppm observed: ≥ 90%

GET /value?item= CCOCCOC(=O)c1cn(C2CC2)c2cc(OCC(F)(F)F)c(F)cc2c1=O [Compound 335] &field=inhibition at 1 ppm returns ≥ 90%

Lookup result for CCN(CC)c1cc2c(cc1F)c(=O)c(C(=O)OCCO)cn2C1CC1 [Compound 419] ; measured inhibition at 1 ppm: ≥ 90%

# inhibition at 1 ppm (compound: CCN(CC)c1cc2c(cc1F)c(=O)c(C(=O)OCCOC)cn2C1CC1 [Compound 420] ) is ≥ 90%

Given item O=C(OCCCO)c1cn(C2CC2)c2cc(F)ccc2c1=O [Compound 207] , the value recorded as its inhibition at 1 ppm is ≥ 90%

// field: inhibition at 1 ppm; key: COCCCCOC(=O)c1cn(C2CC2)c2cc(Cl)c(F)cc2c1=O [Compound 178] ; value = ≥ 90%

Record COCCOC(=O)c1cn(C2CC2)c2ccc(F)cc2c1=O [Compound 10] , field inhibition at 1 ppm: ≥ 90%

compound COc1cc2c(cc1F)c(=O)c(C(=O)OCCCO)cn2C1CC1 [Compound 320] , inhibition at 1 ppm observed: ≥ 90%

Looking up CCSc1cc2c(cc1F)c(=O)c(C(=O)OCCOC)cn2C1CC1 [Compound 382] , I see its inhibition at 1 ppm listed as ≥ 90%

# inhibition at 1 ppm of COCCOC(=O)c1cn(C2CC2)c2cc(OC3CCCC3)c(F)cc2c1=O [Compound 296] = ≥ 90%

For reference, reported inhibition at 1 ppm for O=C(OCCOC1CC1)c1cn(C2CC2)c2cc(Cl)c(F)cc2c1=O [Compound 160] stands at ≥ 80%

Documented inhibition at 1 ppm of CCOCCOC(=O)c1cn(C2CC2)c2cc(OC)c(F)cc2c1=O [Compound 326] : ≥ 90%

Form: compound = O=C(OCCO)c1cn(C2CC2)c2ccc(Cl)cc2c1=O [Compound 44] ; inhibition at 1 ppm = ≥ 80%

Per the records, this compound ( COCCOC(=O)c1cn(C2CC2)c2cc(OC(C)(C)C)c(F)cc2c1=O [Compound 287] ) has inhibition at 1 ppm equal to ≥ 90%

Summary for this compound, COCCOC(=O)c1cn(C2CC2)c2cc(N(C)C)c(F)cc2c1=O [Compound 414] : inhibition at 1 ppm is ≥ 90%

Lab book: inhibition at 1 ppm of O=C(OCCO)c1cn(C2CC2)c2cc(Cl)c(F)cc2c1=O [Compound 151] noted as ≥ 90%

// inhibition at 1 ppm value for CCOc1cc2c(cc1F)c(=O)c(C(=O)OCCOC1CCCC1)cn2C1CC1 [Compound 307] : ≥ 90%

The measured inhibition at 1 ppm associated with O=C(OCCCO)c1cn(C2CC2)c2cc(OCC(F)(F)F)c(F)cc2c1=O [Compound 329] reads ≥ 90%

====

Field: inhibition at 1 ppm. Provide a value for each of the molecules that follow.
test system: pathogenic bacteria causing bacterial wilt in tobacco; assay: whole plant or invertebrate; assay type: cell-based, ralstonia; details: read-out: inhibitory rate

Form: molecule = "COCCOC(=O)c1cn(C2CC2)c2cc(F)ccc2c1=O" ; inhibition at 1 ppm = ≥ 90%

Briefly, inhibition at 1 ppm measured for "COCCOC(=O)c1cn(C2CC2)c2cc(OC(C)(C)C)c(F)cc2c1=O" : ≥ 90%

The molecule "COCCOC(=O)c1cn(C2CC2)c2cc(N3CCOCC3)c(F)cc2c1=O" showed inhibition at 1 ppm equal to ≥ 90%

Entry "CCOc1cc2c(cc1F)c(=O)c(C(=O)OCCCOC)cn2C1CC1" — recorded inhibition at 1 ppm = ≥ 90%

For this molecule ( "COCCOC(=O)c1cn(C2CC2)c2cc(SCC(F)(F)F)c(F)cc2c1=O" ), measured inhibition at 1 ppm is ≥ 90%

Consider "COCCCOC(=O)c1cn(C2CC2)c2cc(F)ccc2c1=O" . Its measured inhibition at 1 ppm is ≥ 90%

Field inhibition at 1 ppm (entry "O=C(OCCO)c1cn(C2CC2)c2cc(OCC(F)(F)F)ccc2c1=O" ) reads ≥ 80%

Lab book: inhibition at 1 ppm of "COCCOC(=O)c1cn(C2CC2)c2cc(OC3CCCC3)c(F)cc2c1=O" noted as ≥ 90%

Record "CCN(CC)c1cc2c(cc1F)c(=O)c(C(=O)OCCO)cn2C1CC1" . Reported inhibition at 1 ppm: ≥ 90%

Notebook: "O=C(OCCO)c1cn(C2CC2)c2cc(Cl)c(F)cc2c1=O" , inhibition at 1 ppm read as ≥ 90%

Consider "COCCOC(=O)c1cn(C2CC2)c2cc(OCC(F)(F)F)ccc2c1=O" . Its measured inhibition at 1 ppm is ≥ 80%

Data point: "COCCOC(=O)c1cn(C2CC2)c2ccc(Cl)cc2c1=O" ; inhibition at 1 ppm = ≥ 90%

// field: inhibition at 1 ppm; key: "COCCCOC(=O)c1cn(C2CC2)c2cc(OC)c(F)cc2c1=O" ; value = ≥ 90%

GET /value?item= "CC(C)(C)Oc1cc2c(cc1F)c(=O)c(C(=O)OCCO)cn2C1CC1" &field=inhibition at 1 ppm returns ≥ 90%

Notebook: "COCOC(=O)c1cn(C2CC2)c2ccc(F)cc2c1=O" , inhibition at 1 ppm read as ≥ 80%

Field inhibition at 1 ppm (entry "COCCOC(=O)c1cn(C2CC2)c2cc(N(C)C)c(F)cc2c1=O" ) reads ≥ 90%

Recorded result, "CCOCCOC(=O)c1cn(C2CC2)c2cc(Cl)c(F)cc2c1=O" , inhibition at 1 ppm: ≥ 90%

The recorded inhibition at 1 ppm for "CCNc1cc2c(cc1F)c(=O)c(C(=O)OCCO)cn2C1CC1" is ≥ 90%

The recorded inhibition at 1 ppm for "O=C(OCCCCO)c1cn(C2CC2)c2cc(Cl)c(F)cc2c1=O" is ≥ 90%

====

system: bacterial blight in rice; assay: whole plant or invertebrate; details: Oryza sativa, read-out: efficacy against bacterial blight in rice
measured_attribute: pest or weed control at 5 ppm

According to the records, this molecule "COCCOC(=O)c1cn(C2CC2)c2ccc(F)cc2c1=O" displays pest or weed control at 5 ppm of ≥ 80%

// pest or weed control at 5 ppm value for "COCCOC(=O)c1cn(C2CC2)c2cc(N3CCCCC3)c(F)cc2c1=O" : ≥ 90%

Notebook: "COCCCOC(=O)c1cn(C2CC2)c2cc(Cl)c(F)cc2c1=O" , pest or weed control at 5 ppm read as ≥ 90%

Data point: "COCCOC(=O)c1cn(C2CC2)c2cc(OC(C)(C)C)c(F)cc2c1=O" ; pest or weed control at 5 ppm = ≥ 90%

Recorded result, "O=C(OCCO)c1cn(C2CC2)c2cc(OCC(F)(F)F)c(F)cc2c1=O" , pest or weed control at 5 ppm: ≥ 90%

For this molecule ( "COc1cc2c(cc1F)c(=O)c(C(=O)OCCO)cn2C1CC1" ), measured pest or weed control at 5 ppm is ≥ 90%

Kindly note the recorded pest or weed control at 5 ppm for "COCCOC(=O)c1cn(C2CC2)c2cc(N3CCOCC3)c(F)cc2c1=O" , which is ≥ 90%

The recorded pest or weed control at 5 ppm for "CCOc1cc2c(cc1F)c(=O)c(C(=O)OCCCO)cn2C1CC1" is ≥ 90%

Sure, the documented pest or weed control at 5 ppm for "CCSc1cc2c(cc1F)c(=O)c(C(=O)OCCO)cn2C1CC1" is ≥ 90%

Measured pest or weed control at 5 ppm of "CCSc1cc2c(cc1F)c(=O)c(C(=O)OCCOC)cn2C1CC1" : ≥ 90%

For reference, reported pest or weed control at 5 ppm for "O=C(OCCO)c1cn(C2CC2)c2cc(Cl)c(F)cc2c1=O" stands at ≥ 90%

Value of measured pest or weed control at 5 ppm for the entry "CCOCCOC(=O)c1cn(C2CC2)c2cc(OC)c(F)cc2c1=O" : ≥ 90%

Record "CCOCCOC(=O)c1cn(C2CC2)c2cc(OCC(F)(F)F)c(F)cc2c1=O" , field pest or weed control at 5 ppm: ≥ 90%

Reported pest or weed control at 5 ppm of "O=C(OCCCO)c1cn(C2CC2)c2ccc(F)cc2c1=O" : ≥ 80%

pest or weed control at 5 ppm recorded for this molecule, "O=C(OCCCO)c1cn(C2CC2)c2cc(OCC(F)(F)F)c(F)cc2c1=O" , is ≥ 90%

The reported value for "COCOC(=O)c1cn(C2CC2)c2cc(Cl)c(F)cc2c1=O" in terms of pest or weed control at 5 ppm is ≥ 80%

Record "CCNc1cc2c(cc1F)c(=O)c(C(=O)OCCO)cn2C1CC1" . Reported pest or weed control at 5 ppm: ≥ 90%

For "COCCOC(=O)c1cn(C2CC2)c2cc(OCC(F)(F)F)c(F)cc2c1=O" the molecule record lists pest or weed control at 5 ppm as ≥ 90%

// recorded pest or weed control at 5 ppm for "CCOc1ccc2c(=O)c(C(=O)OCCOC)cn(C3CC3)c2c1" : ≥ 90%
